- protocol notes: The drug is tested on Z-022 corresponding to mouse gut metagenome with ENA study accession number: PRJEB37062 and ENA sample accession number: ERS12561821 for biotransformation under anaerobic condition. The drug concentrations were measured over 9 timepoints collected between 0 and 24 hours of incubation by liquid-chromatography-coupled mass spectrometry (LC–MS); also: call rule not given here
- assay conditions: 2 µM
measured parameter: Bacterial Biotransformation

[[record]]
molecule = "O=C1CCc2ccc(OCCCCN3CCN(c4cccc(Cl)c4Cl)CC3)cc2N1 [ARIPIPRAZOLE]"
measured_parameter = "Bacterial Biotransformation"
result = "Compound metabolized"

[[record]]
molecule = "COc1ccc2c(c1)c(CC(=O)O)c(C)n2C(=O)c1ccc(Cl)cc1 [INDOMETHACIN]"
measured_parameter = "Bacterial Biotransformation"
result = "Compound NOT metabolized"

[[record]]
molecule = "CC(=O)CCCCn1c(=O)c2c(ncn2C)n(C)c1=O [PENTOXIFYLLINE]"
measured_parameter = "Bacterial Biotransformation"
result = "Compound NOT metabolized"

[[record]]
molecule = "CC(=O)OCC(=O)NCCCOc1cccc(CN2CCCCC2)c1 [ROXATIDINE ACETATE]"
measured_parameter = "Bacterial Biotransformation"
result = "Compound metabolized"

[[record]]
molecule = "CC(C)NCC(O)COc1ccc(CC(N)=O)cc1 (configuration not stated) [ATENOLOL]"
measured_parameter = "Bacterial Biotransformation"
result = "Compound NOT metabolized"

[[record]]
molecule = "COc1ccc(C(CN(C)C)C2(O)CCCCC2)cc1 (configuration not stated) [VENLAFAXINE]"
measured_parameter = "Bacterial Biotransformation"
result = "Compound NOT metabolized"

[[record]]
molecule = "COc1ccc([C@@H]2Sc3ccccc3N(CCN(C)C)C(=O)[C@@H]2OC(C)=O)cc1 [DILTIAZEM]"
measured_parameter = "Bacterial Biotransformation"
result = "Compound metabolized"

[[record]]
molecule = "O=C(O)c1cc(/N=N/c2ccc(S(=O)(=O)Nc3ccccn3)cc2)ccc1O [SULFASALAZINE]"
measured_parameter = "Bacterial Biotransformation"
result = "Compound metabolized"

[[record]]
molecule = "CC(=O)O[C@]1(C(C)=O)CC[C@H]2[C@@H]3C=C(C)C4=CC(=O)CC[C@]4(C)[C@H]3CC[C@@]21C [MEGESTROL ACETATE]"
measured_parameter = "Bacterial Biotransformation"
result = "Compound NOT metabolized"

[[record]]
molecule = "Cc1ccc(NC(=O)c2ccc(CN3CCN(C)CC3)cc2)cc1Nc1nccc(-c2cccnc2)n1 [IMATINIB]"
measured_parameter = "Bacterial Biotransformation"
result = "Compound NOT metabolized"

[[record]]
molecule = "C[C@H]1C[C@H]2[C@@H]3CCC4=CC(=O)C=C[C@]4(C)[C@@]3(F)[C@@H](O)C[C@]2(C)[C@@]1(O)C(=O)CO [BETAMETHASONE]"
measured_parameter = "Bacterial Biotransformation"
result = "Compound metabolized"

[[record]]
molecule = "CC(C)c1nc(N(C)S(C)(=O)=O)nc(-c2ccc(F)cc2)c1/C=C/[C@@H](O)C[C@@H](O)CC(=O)[O-].CC(C)c1nc(N(C)S(C)(=O)=O)nc(-c2ccc(F)cc2)c1/C=C/[C@@H](O)C[C@@H](O)CC(=O)[O-].[Ca+2] [ROSUVASTATIN CALCIUM]"
measured_parameter = "Bacterial Biotransformation"
result = "Compound NOT metabolized"

[[record]]
molecule = "CCN1CCCC1CNC(=O)c1cc(S(=O)(=O)CC)c(N)cc1OC (configuration not stated) [AMISULPRIDE]"
measured_parameter = "Bacterial Biotransformation"
result = "Compound NOT metabolized"

[[record]]
molecule = "CCOc1ccc2nc(S(N)(=O)=O)sc2c1 [ETHOXZOLAMIDE]"
measured_parameter = "Bacterial Biotransformation"
result = "Compound NOT metabolized"

[[record]]
molecule = "CC(C)(C)N.CCC[C@H](N[C@@H](C)C(=O)N1[C@H](C(=O)O)C[C@@H]2CCCC[C@@H]21)C(=O)OCC [PERINDOPRIL ERBUMINE]"
measured_parameter = "Bacterial Biotransformation"
result = "Compound metabolized"

[[record]]
molecule = "CC(C)C[C@H]1C(=O)N2CCC[C@H]2[C@]2(O)O[C@](NC(=O)[C@@H]3C=C4c5cccc6[nH]c(Br)c(c56)C[C@H]4N(C)C3)(C(C)C)C(=O)N12.CS(=O)(=O)O [BROMOCRIPTINE MESYLATE]"
measured_parameter = "Bacterial Biotransformation"
result = "Compound metabolized"

[[record]]
molecule = "CC(C)[C@H]1CC[C@H](C(=O)N[C@H](Cc2ccccc2)C(=O)O)CC1 [NATEGLINIDE]"
measured_parameter = "Bacterial Biotransformation"
result = "Compound NOT metabolized"

[[record]]
molecule = "Nc1nc(N)nc(-c2cc(Cl)ccc2Cl)n1.O=C(O)/C=C\\C(=O)O [IRSOGLADINE MALEATE]"
measured_parameter = "Bacterial Biotransformation"
result = "Compound NOT metabolized"

[[record]]
molecule = "CN1CCC(OC(c2ccccc2)c2ccccc2)CC1"
measured_parameter = "Bacterial Biotransformation"
result = "Compound NOT metabolized"

[[record]]
molecule = "C#C[C@]1(OC(C)=O)CC[C@H]2[C@@H]3CCC4=C[C@@H](OC(C)=O)CC[C@@H]4[C@H]3CC[C@@]21C [ETHYNODIOL DIACETATE]"
measured_parameter = "Bacterial Biotransformation"
result = "Compound metabolized"

[[record]]
molecule = "Cc1cc(C)cc(OCC2CNC(=O)O2)c1 (configuration not stated) [METAXALONE]"
measured_parameter = "Bacterial Biotransformation"
result = "Compound NOT metabolized"

[[record]]
molecule = "COC1=C(OC)C(=O)C(CCCCCCCCCCO)=C(C)C1=O [IDEBENONE]"
measured_parameter = "Bacterial Biotransformation"
result = "Compound NOT metabolized"

[[record]]
molecule = "C#C[C@]1(OC(C)=O)CC[C@H]2[C@@H]3CCC4=CC(=O)CC[C@@H]4[C@H]3CC[C@@]21C [NORETHINDRONE ACETATE]"
measured_parameter = "Bacterial Biotransformation"
result = "Compound metabolized"

[[record]]
molecule = "CC(C)(C)NC(=O)[C@H]1CC[C@H]2[C@@H]3CC[C@H]4NC(=O)C=C[C@]4(C)[C@H]3CC[C@]12C [FINASTERIDE]"
measured_parameter = "Bacterial Biotransformation"
result = "Compound metabolized"

[[record]]
molecule = "CN(C)CCC=C1c2ccccc2COc2ccccc21 [DOXEPIN]"
measured_parameter = "Bacterial Biotransformation"
result = "Compound NOT metabolized"

[[record]]
molecule = "COc1ccc2cc([C@H](C)C(=O)O)ccc2c1 [NAPROXEN]"
measured_parameter = "Bacterial Biotransformation"
result = "Compound NOT metabolized"

[[record]]
molecule = "CN1CCC(=C2c3ccccc3CC(=O)c3sccc32)CC1.O=C(O)/C=C/C(=O)O [KETOTIFEN FUMARATE]"
measured_parameter = "Bacterial Biotransformation"
result = "Compound NOT metabolized"

[[record]]
molecule = "CCCC(C)(COC(N)=O)COC(=O)NC(C)C (configuration not stated) [CARISOPRODOL]"
measured_parameter = "Bacterial Biotransformation"
result = "Compound metabolized"

[[record]]
molecule = "COc1cc2nc(N3CCN(C(=O)C4CCCO4)CC3)nc(N)c2cc1OC (configuration not stated) [TERAZOSIN]"
measured_parameter = "Bacterial Biotransformation"
result = "Compound NOT metabolized"

[[record]]
molecule = "O=P1(N(CCCl)CCCl)NCCCO1 (configuration not stated) [CYCLOPHOSPHAMIDE ANHYDROUS]"
measured_parameter = "Bacterial Biotransformation"
result = "Compound NOT metabolized"

[[record]]
molecule = "O=C1C(CC[S+]([O-])c2ccccc2)C(=O)N(c2ccccc2)N1c1ccccc1 (configuration not stated) [SULFINPYRAZONE]"
measured_parameter = "Bacterial Biotransformation"
result = "Compound NOT metabolized"

[[record]]
molecule = "CN1CCC[C@@H]1CCO[C@](C)(c1ccccc1)c1ccc(Cl)cc1.O=C(O)/C=C/C(=O)O [CLEMASTINE FUMARATE]"
measured_parameter = "Bacterial Biotransformation"
result = "Compound NOT metabolized"


----------
- protocol notes: The drug is tested on Z-017 corresponding to mouse gut metagenome with ENA study accession number: PRJEB37062 and ENA sample accession number: ERS12561816 for biotransformation under anaerobic condition. The drug concentrations were measured over 9 timepoints collected between 0 and 24 hours of incubation by liquid-chromatography-coupled mass spectrometry (LC–MS)
- assay conditions: 2 µM
measured parameter: Bacterial Biotransformation

[[record]]
molecule = "CC(C)(C)N.CCC[C@H](N[C@@H](C)C(=O)N1[C@H](C(=O)O)C[C@@H]2CCCC[C@@H]21)C(=O)OCC"
result = "Compound NOT metabolized"

[[record]]
molecule = "CC#C[C@]1(O)CC[C@H]2[C@@H]3CCC4=CC(=O)CCC4=C3[C@@H](c3ccc(N(C)C)cc3)C[C@@]21C"
result = "Compound NOT metabolized"

[[record]]
molecule = "N=C(N)NC(=O)Cc1c(Cl)cccc1Cl"
result = "Compound NOT metabolized"

[[record]]
molecule = "CC(=O)O[C@]1(C(C)=O)CC[C@H]2[C@@H]3C=C(C)C4=CC(=O)CC[C@]4(C)[C@H]3CC[C@@]21C [MEGESTROL ACETATE]"
result = "Compound metabolized"

[[record]]
molecule = "CC1Cc2ccccc2N1NC(=O)c1ccc(Cl)c(S(N)(=O)=O)c1 (centres undefined) [INDAPAMIDE]"
result = "Compound NOT metabolized"

[[record]]
molecule = "C=C[C@H]1CN2CC[C@H]1C[C@H]2[C@H](O)c1ccnc2ccc(OC)cc12.C=C[C@H]1CN2CC[C@H]1C[C@H]2[C@H](O)c1ccnc2ccc(OC)cc12.O.O.O=S(=O)(O)O [QUININE SULFATE]"
result = "Compound NOT metabolized"

[[record]]
molecule = "O=C1N=C([O-])NC1(c1ccccc1)c1ccccc1.[Na+] [PHENYTOIN SODIUM]"
result = "Compound NOT metabolized"

[[record]]
molecule = "CCN(CC)C(=O)C1(c2ccccc2)CC1CN (centres undefined)"
result = "Compound NOT metabolized"

[[record]]
molecule = "CC(=O)OCC(=O)[C@@]1(OC(C)=O)[C@@H](C)C[C@H]2[C@@H]3C[C@H](F)C4=CC(=O)C=C[C@]4(C)[C@@]3(F)[C@@H](O)C[C@@]21C [DIFLORASONE DIACETATE]"
result = "Compound metabolized"

[[record]]
molecule = "C#C[C@]1(OC(C)=O)CC[C@H]2[C@@H]3CCC4=C[C@@H](OC(C)=O)CC[C@@H]4[C@H]3CC[C@@]21C [ETHYNODIOL DIACETATE]"
result = "Compound metabolized"

[[record]]
molecule = "COC(=O)C(c1ccccc1)C1CCCCN1 (centres undefined) [METHYLPHENIDATE]"
result = "Compound NOT metabolized"

[[record]]
molecule = "CCCCCNC(=N)N/N=C/c1c[nH]c2ccc(OC)cc12.O=C(O)/C=C\\C(=O)O [TEGASEROD MALEATE]"
result = "Compound NOT metabolized"

[[record]]
molecule = "CC(C)C[C@H]1C(=O)N2CCC[C@H]2[C@]2(O)O[C@](NC(=O)[C@@H]3C=C4c5cccc6[nH]c(Br)c(c56)C[C@H]4N(C)C3)(C(C)C)C(=O)N12.CS(=O)(=O)O [BROMOCRIPTINE MESYLATE]"
result = "Compound metabolized"

[[record]]
molecule = "CCOc1ccc2nc(S(N)(=O)=O)sc2c1 [ETHOXZOLAMIDE]"
result = "Compound NOT metabolized"

